Target: Cholecystokinin receptor type A (Rattus norvegicus) (UniProt P30551)
measureName: IC50 (nM)

CC(Cc1c[nH]c2ccccc12)(CN(CCc1ccccc1)C(=O)CCC(=O)O)NC(=O)OC1[C@H]2C[C@@H]3C[C@@H](C[C@H]1C3)C2 (stereo partly drawn)	1080

a: CCOC(=O)CCC(=O)N(CCc1ccccc1)CC(C)(Cc1c[nH]c2ccccc12)NC(=O)OC1[C@H]2C[C@@H]3C[C@@H](C[C@H]1C3)C2 (stereo partly drawn)
b: CN(C(=O)C(Cc1c[nH]c2ccccc12)NC(=O)OC1[C@H]2C[C@@H]3C[C@@H](C[C@H]1C3)C2)C(CO)Cc1ccccc1 (stereo partly drawn)
[Q] From the items above, decide which of a and b has the lower IC50 reading. To answer, give the label that identifies your chosen option.
[A] a
(a: 670 nM, b: 1080 nM)

Data credit: ChEMBL document CHEMBL1125442
